Just for reference, paper PMC11603219 is where these values come from.

Notes on Ki obtained with hCA II (Homo sapiens, UniProt P00918).
Answers are plain numbers, in nM.

• C1=Cc2ccccc2N(Cc2cn(Cc3ccccc3)nn2)c2ccccc21 [Compound 12] = 40.5
• COc1ccc(-n2cc(CN3c4ccccc4C=Cc4ccccc43)nn2)cc1 [Compound 15] = 39.1

Record summary for COc1cc(-n2cc(CN3c4ccccc4C=Cc4ccccc43)nn2)cc(OC)c1OC [Compound 19] : reported Ki = 61.4
